- assay name: supercomplex reporter luminescence per Hoechst cell count – Hoechst nuclei count (AID 1645838);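 also: control cybrid cells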
- assay conditions: Cells, luminescence/Hoechst cell count ratio, measured here: cell number, Hoechst nuclei count, library stock concentration (final well concentration not given) 400 uM
About 100 (5%) of roughly 2,000 compounds were called active. The sample as a whole holds a higher share of actives than the screen did.
experimental readout: cell count

>>> print(df.to_string())
                                   molecule  recorded_measurement
0  CC(=O)c1cccc(NC(=O)CN2CCc3cc4c(cc3C2)OCCCO4)c1                  4830
1  CCCNC(=O)C1OC1C(=O)N[C@@H](C(=O)N1CCCC1C(=O)O)C(C)CC (stereo not given in full)                  4970
2  CC(C)(C)CCN1C[C@@H]2C(CNC(=O)c3cc(Cl)cc(Cl)c3)[C@@H]2C1 (stereo not given in full)                  5180
3  CC1=C(C(=O)Nc2ccccc2C)C(c2cccc([N+](=O)[O-])c2)C2=C(CCCC2=O)N1 (stereo not given)                  4830
4  CC(=O)c1c(C)c2cnc(Nc3ccc(N4CCNCC4)cn3)nc2n(C2CCCC2)c1=O                  4340
5  c1nc2nc(Nc3ccc(N4CCOCC4)cc3)nc(NC3CCCCC3)c2[nH]1                  2200
6  O=C(Nc1ccc(N2CCOCC2)cc1)c1n[nH]c2ccccc12                  4770
7  OCc1cc(C(O)CNCCCCCCOCCCCc2ccccc2)ccc1O (stereo not given)                  4730
8  C#Cc1cccc(Nc2ncnc3cc(OCCOC)c(OCCOC)cc23)c1                  5400
9  Cc1cc(C)cc(NC(=O)Nc2ccc(S(N)(=O)=O)cc2)c1                  5260

====

- assay name: supercomplex reporter luminescence per Hoechst cell count – Hoechst nuclei count (AID 1645838);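 also: control cybrid cells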
- assay conditions: Cells, luminescence/Hoechst cell count ratio, measured here: cell number, Hoechst nuclei count, library stock concentration (final well concentration not given) 278 uM
About 100 (5%) of roughly 2,000 compounds were called active. The full list was thinned out, with actives kept by preference.
Labelling field: enter YES if recorded cell count is less than 6000. Enter NO if it equals or exceeds that cut-off.

>>> df
                                   molecule  label_class
0  Cc1nc(Nc2n[nH]c3c2CN(C(=O)NC(CN(C)C)c2ccccc2)C3(C)C)c2sccc2n1 (stereo not given)          YES
1  Cn1cc(-c2ccc3c(c2)CCN3C(=O)Cc2cccc(C(F)(F)F)c2)c2c(N)ncnc21           NO
2      O=c1c(-c2ccc(O)cc2)coc2cc(O)cc(O)c12           NO
3      O=c1c(-c2ccc(O)c(O)c2)coc2cc(O)ccc12           NO
4  COc1cccc(-c2cn(-c3ccc(CCN4CCC(O)CC4)cc3)c3ncnc(N)c23)c1           NO

====

- assay name: supercomplex reporter luminescence per Hoechst cell count – Hoechst nuclei count (AID 1645838);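 also: control cybrid cells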;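 as to z-score: higher means more mitochondrial supercomplex formation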
- assay conditions: Cells, luminescence/Hoechst cell count ratio, stronger effect = higher value
Among all 2,000 compounds or so, about 100 (5%) were called active. Many of the other results were omitted from the sample, so actives are more common in it than they were.
# label = yes (1) if z-score >= -0.2 else no (0)

compound	label class
O=c1cc(N2CCOCC2)oc2c(-c3ccccc3)cccc12	yes (1)
C[C@@H](O)CCC[C@H](O)/C=C/C1=C(C/C=C\CCCC(=O)O)C(=O)CC1	no (0)
C[C@H](N)C(=O)CCCCCC(=O)O	no (0)
CCCCCCCCCCCCCCCCCCOC[C@H](COP(=O)([O-])OCC[N+](C)(C)C)OC(C)=O	no (0)
CCCC[C@H](C)C[C@H](O)/C=C/[C@H]1[C@H](O)CC(=O)[C@@H]1CCCCC(CC(=O)O)OC (some centres undefined)	no (0)
CCCCC/C=C\C=C\C(O)CCCCCCCC(=O)OC[C@@H](COC(=O)CCCCCCC/C=C\C=C\C(O)CCCCC)OC(=O)CCCCCCC/C=C\C=C\C(O)CCCCC (some centres undefined)	no (0)
CCCCC[C@H](O)/C=C/[C@H]1C=CC(=O)[C@@H]1C/C=C\CCCC(=O)O	yes (1)
COc1ccc(CCCOC(Cn2ccnc2)c2ccc(OC)cc2)cc1 (centres undefined)	yes (1)
CCCCC1C(=O)CC[C@H]2[C@@H]1CC(=O)[C@@H]2CCCCCCC(=O)O (some centres undefined)	yes (1)
